protocol: qHTS assay to identify small molecule agonists of the androgen receptor (AR) signaling pathway in the presence of an antagonist - cell viability counter screen (AID 1259379); also: nearly all actives have a fitted effect of over 25% in size
test-parameters: MDA-kb2 viability, CellTiter-Fluor, 16 h; series mostly up to 92.4 µM
Records with an inconclusive call do not appear. The source made the active and inactive calls. Calls follow the shape of the dose curve; as a rule, active = well fitted cell-killing curve with a large enough effect in the repeat runs; inconclusive = weak or mixed curves, or effect the other way; inactive = flat fitted curve, though single readings scatter.
Outcome field: choose from 1 for active, -1 for inactive

Sample answers from the record:
>>> print(df.to_string())
                           compound  class_assignment
0         O=S(=O)(Cl)c1c(Cl)cccc1Cl                -1
1     O=C(Oc1ccccc1)c1ccc2ccccc2c1O                -1
2           CCCCCCCCCCCCCCCC(=O)OCC                -1
3  CCOC(=O)N1CCC(Nc2ccc(Cl)cc2N)CC1                -1

What classification did "O=C1OC[C@H](Cc2cccc(O)c2)[C@H]1Cc1cccc(O)c1" end up with in this test?
-1

What classification did "CCN(CC)c1cccc(O)c1" end up with in this test?
-1

What classification did "Cc1c(C2(c3cc(Br)c(O)c(Br)c3C)OS(=O)(=O)c3ccccc32)cc(Br)c(O)c1Br" end up with in this test?
1

What classification did "O=C1OC(=O)c2c(Br)c(Br)c(Br)c(Br)c21" end up with in this test?
-1

What classification did "CC(=O)OCC1=C(C(=O)O)N2C(=O)[C@@H](NC(=O)CSc3ccncc3)[C@H]2SC1" end up with in this test?
-1

What classification did "CCCCCCCC(=O)OCCCCCC" end up with in this test?
-1

What classification did CCCCCCC(O)CCOC(C)=O (configuration not stated) end up with in this test?
-1

What classification did CN1C(CSCC(F)(F)F)Nc2cc(Cl)c(S(N)(=O)=O)cc2S1(=O)=O (configuration not stated) end up with in this test?
-1
